Numbers sourced from paper PMC9482650.

Target: T1, PDZRN3_1, Q9UPQ7
T1 sequence (Q9UPQ7 244-349, limits assumed, looked up): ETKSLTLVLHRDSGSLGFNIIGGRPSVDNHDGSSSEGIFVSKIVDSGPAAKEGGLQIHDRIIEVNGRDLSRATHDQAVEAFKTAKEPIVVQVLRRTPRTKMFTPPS
Experiment: holdup assay
Set-up: key: below the threshold = too weak to quantify, mostly under pKd 3.1 to 4
Conditions: plain residues with an end cap or a label only (N-terminal biotin on a linker: ado-ado)
value type: pKd

Example entries and their recorded answers appear below.
binder	observed value
ELSATVTTDC [TRIP6, Q15654]	below the threshold
DFLSTFHIRI [CIB2, O75838]	below the threshold
PSHPRLQTHV [KIRREL2, Q6UWL6]	below the threshold
MQHQRTHTRV [ZSCAN30, Q86W11]	below the threshold
EDGESWEYQI [TRPV6, Q9H1D0]	below the threshold

Dear colleague, could you please provide pKd for the binders listed below?
1. KRPEMTSSSV [MUC3B, MUC3A, Q02505;Q9H195]
2. VKRNSKETVV [MARCHF3, Q86UD3]
3. EIPAQSPTCV [FZD10, Q9ULW2]
4. RQKEVRESKC [SCN8A, Q9UQD0]
5. TRKRSGEAAV [PFKM, P08237]
6. QSYPSKHDYV [CLDN18, P56856]

A:
below the threshold
3.69
below the threshold
4.02
below the threshold
below the threshold
